Molecular target: T1, Human CD137 (TNR9_Human) (human, UniProt Q07011 24-255)
T1 construct: Full-length human CD137 expressed on HEK293T-17, NF-kB/293/GFP-Luc or K562 cells, or native on T cells; also called hCD137 wt; 4-1BB
T1 sequence (Q07011 24-255): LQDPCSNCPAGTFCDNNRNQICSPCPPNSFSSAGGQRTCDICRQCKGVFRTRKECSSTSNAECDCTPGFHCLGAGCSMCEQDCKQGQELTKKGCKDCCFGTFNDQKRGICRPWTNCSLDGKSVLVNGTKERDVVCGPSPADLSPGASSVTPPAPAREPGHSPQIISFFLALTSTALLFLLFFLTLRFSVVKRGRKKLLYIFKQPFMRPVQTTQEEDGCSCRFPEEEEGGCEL
Assay: flow cytometry, HEK293-T17 cells transiently transfected with human CD137, antibody at 1 µg/mL, APC-labeled F(ab')2 secondary
measured.metric: binding result

Problem: Which binding result value is on record for CD137 antibody clone 005 (rabbit) (antibody, human IgG1, kappa, V domains shown, also called Clone 5; CD137 clone 005) VH: QSVEESGGRLVTPGTPLTLTCTASGFTISDFHVTWVRQAPGKGLEWIGTIITSASTTAYATWARGRFTISKSSTTVNLKIVSPTTEDTATYFCARSTYTDTSGYYFDFWGQGTLVTVSS VL: AQVLTQTASPVSAAVGGTVIINCQSSQSIYNGNRLSWYQQKPGQPPKLLIYSASTLASGVSSRFKGSGSGTQFTLAISDVQSDDAATYYCLGSYDCDSADCFAFGGGTEVVVER ?
Result: binds

Problem: Same for CD137 antibody clone 006 (rabbit) (antibody, human IgG1, kappa, V domains shown, also called Clone 6; CD137 clone 006) VH: QSVEESGGRLVTPGTPLTLTCTVSGFSLSSYAMSWVRQAPGKGLEWIGIISTSGITYYASWAKGRFTISKTSTMVDLKITSPTTEDTATYFCARLNGFDDYVRYFDFWGLGTLVTVSS VL: AIELTQTPSSVSAAVGGTVTINCQASESIASNLAWYQQKPGQPPKLLIYAASYLASGVPSRFKGSGSGTEYTLTISGVQSADAATYYCQSAFYVSSSDNAFGGGTEVVVKR
Result: binds

Problem: Same for CD137 antibody clone 001 (rabbit) (antibody, human IgG1, kappa, V domains shown, also called Clone 1; CD137 clone 001) VH: QSVEESGGRLVTPGTPLTLTCTVSGFSLSSYAVSWVRQAPGKGLEWIGVIWNNGATHYATWAKGRFTISKASTTVDLKVTSPTTEDTATYFCARSANDAWSTYSDLWGQGTLVTVSS VL: DIVMTQTPASVEAAVGGTVTIKCQASQTITNYLSWYQQKPGQPPKLLIYKASTLTSGVSSRFKGSGSGTEFTLTISDLESDDAATYYCQNYYYGSSSGYGFVFGGGTEVVVKR
Result: binds
